Every entry's value here was drawn from ChEMBL document CHEMBL3120150.

# experimental_target: Mitogen-activated protein kinase 14 (Homo sapiens, UniProt Q16539)
# Sequence (Q16539 whole entry): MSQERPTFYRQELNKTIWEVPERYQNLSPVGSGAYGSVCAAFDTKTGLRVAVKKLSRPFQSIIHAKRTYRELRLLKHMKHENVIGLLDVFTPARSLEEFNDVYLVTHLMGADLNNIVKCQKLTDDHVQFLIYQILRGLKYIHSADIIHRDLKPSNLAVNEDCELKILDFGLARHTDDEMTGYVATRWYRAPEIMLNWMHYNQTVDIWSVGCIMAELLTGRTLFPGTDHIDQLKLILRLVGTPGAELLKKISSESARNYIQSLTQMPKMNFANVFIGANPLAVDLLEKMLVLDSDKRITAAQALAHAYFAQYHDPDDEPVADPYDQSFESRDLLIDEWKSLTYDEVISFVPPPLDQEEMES
# assay_text: Inhibition of p38a MAPK (unknown origin) by radiometric assay
Measured IC50, listed per entry for reference.
Provide only the numeric value, understood in nM.

Find the recorded IC50 belonging to CN(C)c1ccc(-n2cc(-c3nc(-c4ccc(F)cc4)c(-c4ccncc4)n3C)nn2)cc1 and report it. 1400

Find the recorded IC50 belonging to Cn1c(-c2cn(CCP(=O)(O)O)nn2)nc(-c2ccc(F)cc2)c1-c1ccncc1 and report it. 350

Find the recorded IC50 belonging to Cn1c(-c2cn(CCOCCOCCOCCOCCOCCOCCOCCO)nn2)nc(-c2ccc(F)cc2)c1-c1ccncc1 and report it. 11600

Find the recorded IC50 belonging to Cn1c(-c2cn([C@H]3CCNC[C@@H]3F)nn2)nc(-c2ccc(F)cc2)c1-c1ccncc1 and report it. 96

Find the recorded IC50 belonging to Cn1c(-c2cn(CCOP(=O)(O)O)nn2)nc(-c2ccc(F)cc2)c1-c1ccncc1 and report it. 250

Here is the next item to consider.
Find the recorded IC50 belonging to OCCOCCOCCOCCOCCOCCOCCOCCn1cc(-c2nc(-c3ccc(F)cc3)c(-c3ccncc3)o2)nn1 and report it. 23500
